What follows is a collection of IC50 values obtained with Maltase-glucoamylase (Homo sapiens, UniProt O43451).
Sequence (O43451 whole entry): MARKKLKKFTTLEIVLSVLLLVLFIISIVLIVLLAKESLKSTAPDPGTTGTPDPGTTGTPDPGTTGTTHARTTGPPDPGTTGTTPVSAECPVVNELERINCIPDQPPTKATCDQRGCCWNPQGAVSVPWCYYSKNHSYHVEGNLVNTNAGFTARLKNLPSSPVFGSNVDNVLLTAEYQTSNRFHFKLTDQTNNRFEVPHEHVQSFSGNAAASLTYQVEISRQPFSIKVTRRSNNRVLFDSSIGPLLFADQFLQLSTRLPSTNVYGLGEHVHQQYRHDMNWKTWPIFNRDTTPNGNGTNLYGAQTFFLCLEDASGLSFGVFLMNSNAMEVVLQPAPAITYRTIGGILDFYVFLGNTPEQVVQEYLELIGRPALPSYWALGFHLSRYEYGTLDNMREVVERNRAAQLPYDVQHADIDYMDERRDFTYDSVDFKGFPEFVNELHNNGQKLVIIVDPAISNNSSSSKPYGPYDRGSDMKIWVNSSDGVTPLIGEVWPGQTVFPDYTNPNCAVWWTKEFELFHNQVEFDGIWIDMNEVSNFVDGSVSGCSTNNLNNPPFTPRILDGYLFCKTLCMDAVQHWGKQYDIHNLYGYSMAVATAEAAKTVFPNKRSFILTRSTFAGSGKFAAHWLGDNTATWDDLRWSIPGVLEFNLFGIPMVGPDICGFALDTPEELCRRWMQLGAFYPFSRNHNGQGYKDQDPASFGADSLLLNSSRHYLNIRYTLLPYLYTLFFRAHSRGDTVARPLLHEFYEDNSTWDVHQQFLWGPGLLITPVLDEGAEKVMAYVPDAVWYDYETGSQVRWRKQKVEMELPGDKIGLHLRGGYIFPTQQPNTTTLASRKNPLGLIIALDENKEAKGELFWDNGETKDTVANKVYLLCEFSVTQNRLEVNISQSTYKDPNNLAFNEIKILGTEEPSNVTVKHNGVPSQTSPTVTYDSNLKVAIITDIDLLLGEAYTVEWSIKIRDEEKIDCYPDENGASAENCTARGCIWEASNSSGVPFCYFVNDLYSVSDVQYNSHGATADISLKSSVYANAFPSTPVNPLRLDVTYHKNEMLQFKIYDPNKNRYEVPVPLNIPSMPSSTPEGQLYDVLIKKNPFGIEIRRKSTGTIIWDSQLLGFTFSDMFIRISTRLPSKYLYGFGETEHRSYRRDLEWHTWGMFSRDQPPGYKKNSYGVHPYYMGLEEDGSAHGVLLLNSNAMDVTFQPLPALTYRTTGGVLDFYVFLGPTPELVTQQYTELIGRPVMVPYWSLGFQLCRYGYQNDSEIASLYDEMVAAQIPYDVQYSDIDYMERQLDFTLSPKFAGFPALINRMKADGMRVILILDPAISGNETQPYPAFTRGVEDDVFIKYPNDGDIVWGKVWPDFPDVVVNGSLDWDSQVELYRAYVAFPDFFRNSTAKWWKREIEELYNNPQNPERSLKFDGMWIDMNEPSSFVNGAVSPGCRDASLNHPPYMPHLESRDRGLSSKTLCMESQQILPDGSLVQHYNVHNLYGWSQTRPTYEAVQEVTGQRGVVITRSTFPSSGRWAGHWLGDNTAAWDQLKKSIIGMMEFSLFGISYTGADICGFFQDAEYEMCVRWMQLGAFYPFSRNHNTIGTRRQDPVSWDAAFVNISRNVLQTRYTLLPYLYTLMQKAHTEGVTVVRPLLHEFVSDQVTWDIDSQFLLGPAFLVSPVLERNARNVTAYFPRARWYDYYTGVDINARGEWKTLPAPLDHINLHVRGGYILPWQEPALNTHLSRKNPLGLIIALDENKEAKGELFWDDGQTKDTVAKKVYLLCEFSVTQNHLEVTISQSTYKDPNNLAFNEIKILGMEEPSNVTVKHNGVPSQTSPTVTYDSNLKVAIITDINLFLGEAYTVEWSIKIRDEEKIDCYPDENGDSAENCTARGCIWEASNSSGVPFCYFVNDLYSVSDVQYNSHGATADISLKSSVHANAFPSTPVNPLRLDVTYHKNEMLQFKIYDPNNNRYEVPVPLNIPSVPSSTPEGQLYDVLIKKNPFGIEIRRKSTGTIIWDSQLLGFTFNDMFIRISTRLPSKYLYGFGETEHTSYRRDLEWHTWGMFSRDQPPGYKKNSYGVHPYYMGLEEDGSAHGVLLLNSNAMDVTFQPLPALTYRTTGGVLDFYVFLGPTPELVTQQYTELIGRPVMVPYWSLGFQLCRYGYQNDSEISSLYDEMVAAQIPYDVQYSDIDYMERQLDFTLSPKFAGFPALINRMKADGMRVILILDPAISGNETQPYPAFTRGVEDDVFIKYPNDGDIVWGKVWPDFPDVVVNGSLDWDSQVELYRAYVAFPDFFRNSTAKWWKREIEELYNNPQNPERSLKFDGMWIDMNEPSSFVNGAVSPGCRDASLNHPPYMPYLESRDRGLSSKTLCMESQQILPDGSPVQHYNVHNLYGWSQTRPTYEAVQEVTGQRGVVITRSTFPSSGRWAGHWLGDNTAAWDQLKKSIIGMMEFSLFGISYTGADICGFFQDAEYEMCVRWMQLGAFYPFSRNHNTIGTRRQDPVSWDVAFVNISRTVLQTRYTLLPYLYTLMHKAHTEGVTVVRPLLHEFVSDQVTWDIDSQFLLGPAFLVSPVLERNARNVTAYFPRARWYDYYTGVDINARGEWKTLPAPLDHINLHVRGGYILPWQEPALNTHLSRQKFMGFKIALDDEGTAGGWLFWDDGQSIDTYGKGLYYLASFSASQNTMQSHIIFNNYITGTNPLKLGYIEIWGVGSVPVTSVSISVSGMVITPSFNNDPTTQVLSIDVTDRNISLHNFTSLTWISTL
Enter your answer as a number in µM; do not include the unit.

Please review the entries below; each comes with its answer.
Give IC50 for "O=C(Nc1sc2c(c1C(=O)NCc1ccccc1)CCC2)c1cccnc1"
82.5

Identify the reported IC50 for the following entry. "COC(=O)c1ccc(CNC(=O)c2c(NC(=O)c3cccnc3)sc3c2CCCC3)cc1"
87.8

Note down IC50 recorded for "COc1cc(CNC(=O)c2c(NC(=O)c3cccnc3)sc3c2CCCCC3)ccc1O"
35.4

Now, please, on to the next compound.
Using the record for "O=C(Nc1sc2c(c1C(=O)NCc1ccccc1)CCCCC2)c1cccnc1" , state its measured IC50.
63.4

###

Target: UniProt:O43451
# Lookup of reported pIC50 keyed by entry
Scale note: pIC50 = -log10(concentration in M).

Previously resolved entries follow.
State measured pIC50 of the molecule "COc1ccc(CNC(=O)c2c(NC(=O)c3cccnc3)sc3c2CCC3)cc1" with UniProt:O43451.
4.06

State pIC50 (UniProt:O43451) of "O=C(Nc1sc2c(c1C(=O)NCc1cccnc1)CCCC2)c1cccnc1" .
3.29

Param request: pIC50 | system UniProt:O43451 | item "O=C(Nc1sc2c(c1C(=O)NCc1ccccn1)CCCC2)c1cccnc1"
4.19

Fill in: pIC50 on UniProt:O43451, entry "COc1cc(CNC(=O)c2c(NC(=O)c3cccnc3)sc3c2CCC3)ccc1O"
4.03

--- query ---
Specify pIC50 for "COc1ccc(CNC(=O)c2c(NC(=O)c3cccnc3)sc3c2CCCC3)cc1" , system UniProt:O43451.
4.52
